# System name: Erh1 (Erh1wt) (Schizosaccharomyces pombe, UniProt G2TRN4)
# Construct: A region of Erh1 (residues 1–104) was amplified by PCR; made in house; host or cells: Escherichia coli BL21 (Gold)
# Sequence (G2TRN4 1-104): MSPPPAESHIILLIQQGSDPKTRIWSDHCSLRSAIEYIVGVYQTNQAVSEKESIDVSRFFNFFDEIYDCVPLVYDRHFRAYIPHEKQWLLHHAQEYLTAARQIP
# Protocol details: Isothermal titration calorimetry (ITC), SUMO-tagged Mmi1 peptides titrated into wild-type Erh1
# Type: binding, S. pombe
# Test settings: Erh1wt; ITC, 293 K, 20 mM Tris-HCl pH 7.5, 150 mM NaCl; SUMO-tagged Mmi1 peptide; single-site model
Where no end group is shown, it is not given here. SUMO = SUMO tag, N-terminal
Endpoint name: ΔH (binding enthalpy) (kJ per mol)
State just the number; it will be interpreted in kJ per mol.

>>> number("Mmi1Y97A: Mmi1 peptide mutant Y97A ({SUMO}-GKADFSRHCTDYGHSYEWPYFRSLRRES; not fully specified)")
-46.1

API: value(readout=ΔH (binding enthalpy), system=Erh1 (Erh1wt) (Schizosaccharomyces pombe, UniProt G2TRN4)) for record Mmi1F115A: Mmi1 peptide mutant F115A ({SUMO}-GKYDFSRHCTDYGHSYEWPYARSLRRES; not fully specified)
-68.0

API: value(readout=ΔH (binding enthalpy), system=Erh1 (Erh1wt) (Schizosaccharomyces pombe, UniProt G2TRN4)) for record Mmi1S100A: Mmi1 peptide mutant S100A ({SUMO}-GKYDFARHCTDYGHSYEWPYFRSLRRES; not fully specified)
-36.0

###

# key: entry, value: ΔH (binding enthalpy)
# System name: Erh1 (Erh1wt) (Schizosaccharomyces pombe)
# Construct: A region of Erh1 (residues 1–104) was amplified by PCR; made in house; host or cells: Escherichia coli BL21 (Gold)
# Sequence (G2TRN4 1-104): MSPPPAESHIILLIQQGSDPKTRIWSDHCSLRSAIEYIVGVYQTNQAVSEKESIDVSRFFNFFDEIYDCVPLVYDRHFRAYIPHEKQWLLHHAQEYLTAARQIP
# Protocol details: Isothermal titration calorimetry (ITC), SUMO-tagged Mmi1 peptides titrated into wild-type Erh1
# Assay type: binding, S. pombe
# Test settings: Erh1wt; ITC, 293 K, 20 mM Tris-HCl pH 7.5, 150 mM NaCl; SUMO-tagged Mmi1 peptide; single-site model
Where no end group is shown, it is not given here. SUMO = SUMO tag, N-terminal

>>> result("Mmi1Y114A: Mmi1 peptide mutant Y114A ({SUMO}-GKYDFSRHCTDYGHSYEWPAFRSLRRES; not fully specified)")
"-61.8±1.07 kJ per mol"
>>> result("Mmi1T104A: Mmi1 peptide mutant T104A ({SUMO}-GKYDFSRHCADYGHSYEWPYFRSLRRES; not fully specified)")
"-53.7±1.31 kJ per mol"
>>> result("Mmi1H108A: Mmi1 peptide mutant H108A ({SUMO}-GKYDFSRHCTDYGASYEWPYFRSLRRES; not fully specified)")
"-9.97±2.43 kJ per mol"

For the substance shown here, Mmi1^95–122: Mmi1 fragment, residues 95–122, Erh1-interacting domain (EID) ({SUMO}-GKYDFSRHCTDYGHSYEWPYFRSLRRES; not fully specified) , give the reported ΔH (binding enthalpy).
−106±3.02 kJ per mol

For the substance shown here, Mmi1Y106A: Mmi1 peptide mutant Y106A ({SUMO}-GKYDFSRHCTDAGHSYEWPYFRSLRRES; not fully specified) , give the reported ΔH (binding enthalpy).
-43.8±2.35 kJ per mol

For the substance shown here, Mmi1Y110A: Mmi1 peptide mutant Y110A ({SUMO}-GKYDFSRHCTDYGHSAEWPYFRSLRRES; not fully specified) , give the reported ΔH (binding enthalpy).
-273±20.3 kJ per mol

Values from paper PMC6335422
